Assay: BRlogD chromatographic lipophilicity (XBridge Shield RP18)
Format: physicochemical
Conditions: XBridge Shield RP18 HPLC column (130 Å, 5 µm, 5 cm × 4.6 mm); 60% ACN / 40% 20 mM ammonium acetate, pH 7
MEASURED ENDPOINT: chromatographic logD

INSERT INTO results (smiles_text, observed_result) VALUES
  ('Cc1ncsc1-c1ccc([C@H](C[C@@H](C)CN2CCC(c3ccc4c(c3)n(C3CCCC3)c3nc(=O)c5c(Br)cccc5n43)CC2)NC(=O)[C@@H]2C[C@@H](O)CN2C(=O)[C@@H](NC(=O)C2(F)CC2)C(C)(C)C)cc1', 3.32),
  ('Cc1ncsc1-c1ccc([C@H](CO[C@@H](C)CN2CCC(c3ccc4c(c3)n(C3CCCC3)c3nc(=O)c5c(Br)cccc5n43)CC2)NC(=O)[C@@H]2C[C@@H](O)CN2C(=O)[C@@H](NC(=O)C2(F)CC2)C(C)(C)C)cc1', 2.58),
  ('Cc1ncsc1-c1ccc([C@H](COC(C)(C)CN2CCC(c3ccc4c(c3)n(C3CCCC3)c3nc(=O)c5c(Br)cccc5n43)CC2)NC(=O)[C@@H]2C[C@@H](O)CN2C(=O)[C@@H](NC(=O)C2(F)CC2)C(C)(C)C)cc1', 3.25),
  ('Cc1ncsc1-c1ccc([C@H](CC[C@@H](C)CCN2CCC(c3ccc4c(c3)n(C3CCCC3)c3nc(=O)c5c(Br)cccc5n43)CC2)NC(=O)[C@@H]2C[C@@H](O)CN2C(=O)[C@@H](NC(=O)C2(F)CC2)C(C)(C)C)cc1', 2.8);
